Target or system Adenosine receptor A2a (Rattus norvegicus, UniProt P30543); metric Ki; compiled from varied reports.
Record the value in µM, omitting the unit from your answer.

molecule	experimental.system	property.measured	result
CCCc1nc(N)c2ncn(C3O[C@H](CO)[C@@H](O)[C@H]3O)c2n1 (stereo not given in full)	Adenosine receptor A2a (Rattus norvegicus, UniProt P30543)	Ki	0.0075
CCCOC1=Nc2c(ncn2-c2ccccc2)C2=N[C@H](Cc3ccccc3)CN12	Adenosine receptor A2a (Rattus norvegicus, UniProt P30543)	Ki	72
Cn1c(=O)c2c(nc(/C=C/C=C/c3cccc(F)c3)n2C)n(C)c1=O	Adenosine receptor A2a (Rattus norvegicus, UniProt P30543)	Ki	0.114
CCCCn1c(=O)c2c(nc3n2CCCN3CCc2ccc(OCC(=O)NCCc3ccccn3)cc2)n(CCCC)c1=O	Adenosine receptor A2a (Rattus norvegicus, UniProt P30543)	Ki	1.07
C#CCn1c(=O)c2c(nc(/C=C/c3cccc(Br)c3)n2C)n(CCCO)c1=O	Adenosine receptor A2a (Rattus norvegicus, UniProt P30543)	Ki	0.013

Shifting focus to the molecule that follows.
Query: State the recorded Ki for this entry: `Cn1c(=O)c2[nH]c(-c3ccc(S(=O)(=O)O)cc3)nc2n(C)c1=O`
Reply: 5.8

###

pKi: −log10 of the molar value.
pKi values for UniProtKB P30543, compiled from several publications.
Binary classification by pKi, with 7 as an inclusive lower bound for True; all other cases are False.

molecule	classification
COCCOc1ccc(N2CCN(Cc3cccc(-c4cc5nc(-c6ccco6)nn5c(N)n4)c3)CC2)c(Cl)c1	True
CCCCn1c(=O)c2c(ncn2C2O[C@H](C(=O)NCC)[C@@H](O)[C@H]2O)n(CCCC)c1=O (some centres undefined)	False
Cn1c(=O)c2c(nc(NCc3ccccc3)n2C)n(C)c1=O	False
Cn1c(=O)c2c(nc3n2CCN(CCCc2cccc(Br)c2)C3)n(C)c1=O	False
Nc1nc(N2CCN(Cc3c(F)ccc(Cl)c3F)CC2)nc2nc(-c3ccco3)nn12	True

Query: Could you verify whether the entry `COCCOc1c(F)cc(N2CCN(Cc3cccc(-c4cc5nc(-c6ccco6)nn5c(N)n4)c3)CC2)cc1F` shows pKi of no less than 7?
Reply: True

Query: Quick one: `Cn1c(=O)c2c(nc3n2CCN(CCc2cccc(C(F)(F)F)c2)C3)n(C)c1=O`
Reply: False

Query: Can you check `COc1ccc(/C=C/C=N/Nc2nc(N)c3ncn([C@@H]4O[C@H](CO)[C@@H](O)[C@H]4O)c3n2)cc1` next?
Reply: True

###

From various publications: pKi for Adenosine receptor A2a (Rattus norvegicus, UniProt P30543).
Conceptually, pKi converts a concentration in mol/L into minus its log10.

compound	experimental.system	result
CCCn1c(=O)c2c(nc3n2CCCN3CCc2ccc(OCC(=O)NCCc3ccc(S(N)(=O)=O)cc3)cc2)n(CCC)c1=O	Adenosine receptor A2a (Rattus norvegicus, UniProt P30543)	5.73
CCCCC#Cc1nc(N)c2ncn([C@@H]3O[C@H](CSC)[C@@H](O)[C@H]3O)c2n1	Adenosine receptor A2a (Rattus norvegicus, UniProt P30543)	7.22
OC[C@H]1O[C@@H](n2cnc3c(NO)ccnc32)[C@H](O)[C@@H]1O	Adenosine receptor A2a (Rattus norvegicus, UniProt P30543)	5.00
OC[C@H]1OC(n2cnc3c(NC4CCCCCC4)nc(Cl)nc32)[C@H](O)[C@@H]1O (stereo not given in full)	Adenosine receptor A2a (Rattus norvegicus, UniProt P30543)	5.96

Here's the next entry for you.
Query: Which pKi reading was recorded for the compound `COC(=O)Nc1cc(-c2cncc(OC)c2)nc(-n2nc(C)cc2C)n1` ?
Reply: 7.17

###

// cross-source set; read-out = Ki; system = Adenosine receptor A2a (Rattus norvegicus)
Sequence (P30543 whole entry): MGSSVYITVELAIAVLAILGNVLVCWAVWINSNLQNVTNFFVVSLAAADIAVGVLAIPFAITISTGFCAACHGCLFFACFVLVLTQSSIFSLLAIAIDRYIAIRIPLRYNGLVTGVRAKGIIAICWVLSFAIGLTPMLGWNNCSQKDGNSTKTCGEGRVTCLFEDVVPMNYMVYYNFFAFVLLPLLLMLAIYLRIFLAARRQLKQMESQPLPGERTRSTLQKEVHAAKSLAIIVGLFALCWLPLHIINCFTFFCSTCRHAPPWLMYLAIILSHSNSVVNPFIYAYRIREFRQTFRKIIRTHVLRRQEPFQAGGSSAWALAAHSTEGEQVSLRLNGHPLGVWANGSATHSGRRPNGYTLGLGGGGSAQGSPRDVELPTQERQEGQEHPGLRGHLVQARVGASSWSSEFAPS
Give your result in nM as a bare value.

Examples with their reported Ki follow.
molecule	property.measured	result
Cc1cc(CN(C)CCN(C)c2nc(N)n3nc(-c4ccco4)nc3n2)no1	Ki	130
Cc1c(C)n([C@H](C)c2ccccc2)c2nc(-c3ccccc3Cl)nc(N)c12	Ki	5200
[N-]=[N+]=N[C@@H]1[C@@H](O)[C@H](n2cnc3c(NC4CCCC4)ncnc32)O[C@@H]1CO	Ki	2410
Nc1nc(NC[C@H]2CCCN2Cc2ccnc(Cl)c2)nc2nc(-c3ccco3)nn12	Ki	10

Query: State the recorded Ki for this entry: `Cc1ccc(NC(=O)Nc2nc(N(C)C)nc3nc(-c4ccco4)nn23)cc1`
Reply: 2720

Query: Record: `Nc1nc(NC[C@H]2CCCN2Cc2cccc(F)c2)nc2nc(-c3ccco3)nn12`
Reply: 25

###

This section presents Ki values reported for UniProtKB P30543 in the literature.

molecule	experimental.system	property.measured	result
OC[C@@H]1OC(n2cnc3c2N=CN2C[C@H](c4ccccc4)N=C32)[C@@H](O)[C@H]1O (stereo not given in full)	UniProtKB P30543	Ki	189000 nM
Nc1nc(N2CCN(Cc3ccccn3)CC2)nc2nc(-c3ccco3)nn12	UniProtKB P30543	Ki	110 nM
CCCCn1c(=O)c2c(nc3n2CCCN3c2ccc(OCCN3CCOCC3)cc2)n(CCCC)c1=O	UniProtKB P30543	Ki	> 1000 nM

Query: Which value of Ki has been reported for `Cn1c(=O)c2[nH]c(-c3ccc(C(F)(F)F)cc3)nc2n(C)c1=O` in the records?
Reply: 210 nM

Query: Moving on to `CCCn1c(=O)[nH]c2[nH]c(-c3ccc(S(=O)(=O)Nc4ccccc4)cc3)nc2c1=O`
Reply: 23 nM

Query: Lookup `COCCOc1ccc(C2CCN(Cc3cccc(-c4cc5nc(-c6ccco6)nn5c(N)n4)c3)CC2)cc1`
Reply: 8.9 nM

Query: Entry `Cn1c(=O)c2c(nc3n2CCN(c2ccc(Cl)cc2)C3)n(C)c1=O` please
Reply: > 10000 nM

Query: Lookup `Nc1nc(SCC2CCCCC2)nc2c1ncn2[C@@H]1O[C@H](CO)[C@@H](O)[C@H]1O`
Reply: 709 nM

Query: Could you do the same for Nc1nc(CO)nc2c1ncn2C1O[C@H](CO)[C@@H](O)[C@H]1O (stereo not given in full) , please?
Reply: 20.5 nM

Query: Another: `Cn1c(=O)c2c(nc3n2CCCN3CCOCc2ccccc2)n(C)c1=O`
Reply: 3690 nM

Query: And for `Cc1cc(CN2CCC[C@@H]2CNc2cc3nc(-c4ccco4)nn3c(N)n2)no1` ?
Reply: 57 nM

Query: What about `COC[C@H]1CCCN1c1cc(NC(C)=O)nc(-n2nc(C)cc2C)n1` ?
Reply: 48 nM

Query: One more molecule: CCC(Sc1nc(SC)c2cnn(-c3ccccc3)c2n1)C(N)=O (stereo not given)
Reply: 796 nM

Query: How about `Cn1c(=O)c2c(nc(-c3ccccc3)n2C)n(C)c1=O` ?
Reply: 16000 nM

Query: Same for `Nc1nc(N/N=C\C2CCCCC2)nc2c1ncn2[C@@H]1O[C@H](CO)[C@@H](O)[C@H]1O`
Reply: 66 nM

###

Across several publications, the following Ki results were reported for Adenosine receptor A2a (Rattus norvegicus, UniProt P30543).
Just the number in nM, nothing appended.

Reference set (5 entries):
compound	Ki / nM
CN1C(=O)N2CCN=C2c2c1ncn2C	20700
Nc1nc(-c2ccccc2)cc(-c2cccc(OC(=O)N3CCCC3)c2)n1	24.8
Nc1nc(C#Cc2ccccc2)nc2c1ncn2[C@@H]1O[C@H](CO)[C@@H](O)[C@H]1O	109
CCCCn1c(=O)c2c(nc3n2CCCN3c2ccc(OCCN3CCCCC3)cc2)n(CCCC)c1=O	1480
CCSC(=O)c1c(CC)nc(-c2ccccc2)c(C(=O)OCCF)c1CC	7330

Query: Value lookup for Ki; key = `OC[C@@]12C[C@@H]1[C@@H](n1cnc3c(NCc4cccc(I)c4)ncnc31)[C@H](O)[C@@H]2O`
Reply: 601

Query: Continue with `O=C(Cc1ccccc1I)Nc1nc2ccc(Cl)cc2c2nc(-c3ccco3)nn12`
Reply: 17.2

Query: Now consider `CCCNC(=O)c1cnn(-c2nc(N)c3ncn([C@@H]4O[C@H](CO)[C@@H](O)[C@H]4O)c3n2)c1` and answer again.
Reply: 50

Query: Request: `CCCn1c(=O)c2c(nc3n2CCCN3c2ccc(OCCN3CCOCC3)cc2)n(CCC)c1=O`
Reply: 1930

Query: Same read-out for `CN(C)c1nc(NC(=O)C(c2ccccc2)c2ccccc2)n2nc(-c3ccco3)nc2n1` ?
Reply: 4090

Query: Lookup `C[C@H](c1ccccc1)n1c2ccccc2c2c(N)nc(-c3ccccc3)nc21`
Reply: 6200

Query: What do you get for `CCCn1c(=O)c2c(nc3n2CCCN3Cc2ccc(F)cc2)n(CCC)c1=O` ?
Reply: 3430

Query: Could you do the same for CCCCCOc1nc(N)c2ncn(C3O[C@H](CO)[C@@H](O)[C@H]3O)c2n1 (stereo not given in full) , please?
Reply: 150

Query: Can you check `Nc1nc(SC2CCCC2)nc2c1ncn2[C@@H]1O[C@H](CO)[C@@H](O)[C@H]1O` next?
Reply: 793
